B1: TPR t1 (parent)
chain: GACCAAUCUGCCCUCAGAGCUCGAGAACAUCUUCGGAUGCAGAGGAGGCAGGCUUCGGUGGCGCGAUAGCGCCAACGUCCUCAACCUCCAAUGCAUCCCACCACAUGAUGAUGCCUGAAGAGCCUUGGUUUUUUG

Variants of: B1
Assay: polymerase ribozyme fitness, log enrichment relative to wild type (log ratio); higher = more active; in vitro selection for triplet polymerase activity
measuredMetric: polymerase ribozyme fitness (log ratio)

Q: Answer with the recorded polymerase ribozyme fitness (log ratio) of U106G C115U only.
Result: -4.44

Q: Return polymerase ribozyme fitness (log ratio) (reported value) for this variant: A75G G113C
Result: -2.4

Q: Given the variant A27U C94G , write its reported polymerase ribozyme fitness (log ratio).
Result: -5.02

Q: Answer with reported polymerase ribozyme fitness (log ratio) of G60A U92G C115A G120C
Result: -2.03

Q: Please list polymerase ribozyme fitness (log ratio) recorded for the variant U92A U109G
Result: -5.94

Q: Please give measured polymerase ribozyme fitness (log ratio) of the following entry: A26C G117U A119U
Result: -7.54

Q: Hello, please tell me recorded polymerase ribozyme fitness (log ratio) for this one: C20A G63A C102G G113C C115A G117C
Result: -8.43

Q: Dear colleague, please send me the reported polymerase ribozyme fitness (log ratio) for G42C U112A when you can.
Result: -0.562

Q: Look up and state reported polymerase ribozyme fitness (log ratio) for G61C A111G
Result: -0.983

Q: Identify the reported polymerase ribozyme fitness (log ratio) for the following entry. C49G G69C
Result: -1.79

Q: Please supply the value of reported polymerase ribozyme fitness (log ratio) for the item G60U G93U A108G G120U
Result: -3.22

Q: Consider the variant U14A C53G C70U C72G and give its recorded polymerase ribozyme fitness (log ratio).
Result: -4.88

Q: Indicate the recorded polymerase ribozyme fitness (log ratio) value for this variant: A6C G19A A41C C70A
Result: -4.25

Q: Note down polymerase ribozyme fitness (log ratio) recorded for A121U C123G
Result: 1.92

Q: Please list polymerase ribozyme fitness (log ratio) recorded for the variant C12G C13A C72G C124U
Result: -0.0514

Q: Return polymerase ribozyme fitness (log ratio) (reported value) for this variant: U7G C56A A84G U133G G135U
Result: -0.824

Q: Return the recorded polymerase ribozyme fitness (log ratio) value; entry: C8G U14G C53U G71A
Result: -0.0624

Q: Quick one: give measured polymerase ribozyme fitness (log ratio) for G48C C85U G117U
Result: -3.32

Q: Please give measured polymerase ribozyme fitness (log ratio) of the following entry: C20U G117U
Result: -3.53

Q: Name the recorded polymerase ribozyme fitness (log ratio) of the variant listed here: C56U C114A G128A U133G
Result: -4.81

Q: Give a short answer stating reported polymerase ribozyme fitness (log ratio) for G60A G120C .
Result: 0.892

Q: Specify reported polymerase ribozyme fitness (log ratio) for the variant shown: C8A G61C A119G U126G
Result: -2.44

Q: Give the measured polymerase ribozyme fitness (log ratio) for C3A U9A C12A A83G
Result: -2.57

Q: Complete the entry with polymerase ribozyme fitness (log ratio) for U14G A37G G42A G77A
Result: -4.88

Q: Let me know recorded polymerase ribozyme fitness (log ratio) for G57U C123U , thanks.
Result: 0.41

Q: Query polymerase ribozyme fitness (log ratio) for C53A A66U C72U C123U
Result: 0.234

Q: Report polymerase ribozyme fitness (log ratio), nothing else, for this variant: C40U C73A
Result: -0.621

Q: Return the recorded polymerase ribozyme fitness (log ratio) value; entry: C11U C20G A27G C56U
Result: -5.19

Q: Supply measured polymerase ribozyme fitness (log ratio) of C72G U92C in your reply.
Result: -1.36

Q: For the variant A2C G44A G113A , report polymerase ribozyme fitness (log ratio).
Result: -4.5

Q: Please give measured polymerase ribozyme fitness (log ratio) of the following entry: C8G A50C C79U A90U
Result: -1.96

Q: Identify the reported polymerase ribozyme fitness (log ratio) for the following entry. U59A U81A A119U
Result: -0.551

Q: Supply recorded polymerase ribozyme fitness (log ratio) for A5G U112A G127U here.
Result: 0.804

Q: Consider the variant C82U G117U and give its recorded polymerase ribozyme fitness (log ratio).
Result: -2.7

Q: Give recorded polymerase ribozyme fitness (log ratio). C15A G120A
Result: 0.181

Q: Indicate its recorded polymerase ribozyme fitness (log ratio); the variant in question is A50C G110C
Result: -4.96

Q: Provide polymerase ribozyme fitness (log ratio) value for the following variant: U14A A18U C31G U38G G107A C124A
Result: -6.73

The reported numbers originate from the RNAGym collection of RNA variant scans (doi:10.1073/pnas.2313332121).
